Molecular target: PfPFT (P. falciparum protein farnesyltransferase) (Plasmodium falciparum, UniProt Q5EI73+Q5EI74)
Assay: PfPFT [3H] scintillation proximity assay
Format: biochemical
Conditions: read-out: Inhibition of PfFTase (%) 50 nM
Assay endpoint: inhibition at 0.05 µM

Sure, the documented inhibition at 0.05 µM for Cn1cnc(S(=O)(=O)N(CC(=O)N(Cc2cncn2C)c2ccc(C#N)cc2)Cc2ccccc2)c1 [4a] is 0%

Sure, the documented inhibition at 0.05 µM for Cn1cnc(S(=O)(=O)N(CC(=O)N(Cc2cncn2C)c2ccc(C#N)cc2)CC2CCN(C(=O)OC(C)(C)C)CC2)c1 [4d] is 0%

Sure, the documented inhibition at 0.05 µM for Cn1cnc(S(=O)(=O)N(CCC(=O)N(Cc2cncn2C)c2ccc(C#N)cc2)CC2CCN(C(=O)OC(C)(C)C)CC2)c1 [5d] is 0%

Sure, the documented inhibition at 0.05 µM for Cn1cnc(S(=O)(=O)N(CC2CCN(C(=O)OC(C)(C)C)CC2)[C@H]2CC[C@H](N(Cc3cncn3C)c3ccc(C#N)cc3)CC2)c1 [11d] is 0%

Sure, the documented inhibition at 0.05 µM for Cn1cnc(S(=O)(=O)N(CCC(=O)N(Cc2cncn2C)c2ccc(C#N)cc2)Cc2ccccc2)c1 [5a] is 0%

Sure, the documented inhibition at 0.05 µM for Cn1cnc(S(=O)(=O)N(CC2CCN(C(=O)OC(C)(C)C)CC2)[C@H]2CC[C@@H](N(Cc3cncn3C)c3ccc(C#N)cc3)CC2)c1 [10d] is 0%
